B1: HEEH_KT_rd6_3632 (parent)
chain: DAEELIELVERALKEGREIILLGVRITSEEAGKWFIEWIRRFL

# Variants of: B1
# experiment.notes: folding stability dG (cDNA display proteolysis); higher = more stable
# applied.conditions: PBS, room temperature
Can you tell me folding stability dG for the items I'm about to list?
Reply numerically in kcal/mol, unit not repeated.

For reference, reported folding stability dG for "E7S" stands at 3.88

For reference, reported folding stability dG for "L8D" stands at 2.92

For reference, reported folding stability dG for "L22N" stands at 3.05

For reference, reported folding stability dG for "I19H" stands at 2.98

For reference, reported folding stability dG for "E15D" stands at 3.7

For reference, reported folding stability dG for "V24H" stands at 3.42

For reference, reported folding stability dG for "E30N" stands at 3.56

For reference, reported folding stability dG for "L22A" stands at 3.2

For reference, reported folding stability dG for "T27Y" stands at 3.74

For reference, reported folding stability dG for "I20R" stands at 3.13

For reference, reported folding stability dG for "R11G" stands at 3.19

For reference, reported folding stability dG for "V24T" stands at 3.25

For reference, reported folding stability dG for "F35A" stands at 3.03

For reference, reported folding stability dG for "R41A" stands at 3.62

For reference, reported folding stability dG for "F42L" stands at 3.73

For reference, reported folding stability dG for "W34V" stands at 3.35

For reference, reported folding stability dG for "G32Q" stands at 3.43

For reference, reported folding stability dG for "V9W" stands at 3.15

For reference, reported folding stability dG for "D1A" stands at 3.97

For reference, reported folding stability dG for "E29Y" stands at 3.96

For reference, reported folding stability dG for "K14M" stands at 3.48

For reference, reported folding stability dG for "L43Q" stands at 3.22
